Data origin, for the record: ChEMBL document CHEMBL1201862

The molecules listed here are annotated with their GI50.
# Test system: SF-268
# assay.name: NCI tumour cell line growth inhibition, 48 h
Active and inactive are the calls of the source. No stated cut-off is given here; in the data, active = GI50 up to about 1.1 µM and inactive = higher.
quantity: GI50

{"molecule": "CCCCCCCCCCCCCCCC(=O)OCC(COP(=O)(O)OCCNC(=O)CCSSc1ccccn1)OC(=O)CCCCCCCCCCCCCCC (centres undefined)", "quantity": "GI50", "measured.result": "> 100 µM (inactive)"}
{"molecule": "N#CCC(=O)Nc1ccccc1O", "quantity": "GI50", "measured.result": "> 100 µM (inactive)"}
{"molecule": "Nc1ccc(-c2ccc(Nc3cc(S(=O)(=O)O)c(N)c4c3C(=O)c3ccccc3C4=O)cc2)c(S(=O)(=O)O)c1", "quantity": "GI50", "measured.result": "> 100 µM (inactive)"}
{"molecule": "O=C1CCC2(c3ccccc3)Nc3ccncc3N12 (centres undefined)", "quantity": "GI50", "measured.result": "> 10 µM (inactive)"}
{"molecule": "COc1ccc(CNc2cc(OC)cc(OC)c2)cc1", "quantity": "GI50", "measured.result": "> 62.1 µM (inactive)"}
{"molecule": "CC(C)(CN1CCCCC1)C(=O)/C=C/c1ccc(Br)cc1", "quantity": "GI50", "measured.result": "2.34 µM (inactive)"}
{"molecule": "CCOC(=O)C(NC(=O)CC)(Nc1ccc(F)cc1F)C(F)(F)F (centres undefined)", "quantity": "GI50", "measured.result": "> 100 µM (inactive)"}
{"molecule": "O=C(OC1CN2CCC1CC2)N(c1ccccc1)c1ccccc1 (centres undefined)", "quantity": "GI50", "measured.result": "> 100 µM (inactive)"}
{"molecule": "CC1=C(C(N)=O)C(c2ccncc2)C(C#N)C(=O)N1 (centres undefined)", "quantity": "GI50", "measured.result": "> 100 µM (inactive)"}
{"molecule": "Cc1ccc(-c2nnc(CCCCCCCCc3nnc(-c4ccc(C)cc4O)n3N)n2N)c(O)c1", "quantity": "GI50", "measured.result": "> 100 µM (inactive)"}
{"molecule": "CCCCCCCCCCCCCC(=O)OCC1OC(n2cc(F)c(=O)[nH]c2=O)C(N)C(OC(=O)CCCCCCCCCCCCC)C1O (centres undefined)", "quantity": "GI50", "measured.result": "> 100 µM (inactive)"}
{"molecule": "COC1C=COC2(C)Oc3c(C)c(O)c4c(c3C2=O)/C(=N/C2CCC(O)OC2C)C=C(NC(=O)/C(C)=C\\C(=O)C2CC2C(O)C(C)C(O)C(C)C(OC(C)=O)C1C)C4=O (centres undefined)", "quantity": "GI50", "measured.result": "2.97 µM (inactive)"}
{"molecule": "Cc1ccc([N+](=O)[O-])cc1S(=O)(=O)Nc1ccc(C2=NNC(c3cccs3)C2)cc1 (centres undefined)", "quantity": "GI50", "measured.result": "36.8 µM (inactive)"}
{"molecule": "c1ccc2oc(-c3ccc(-c4nc5ccccc5o4)c4c3CC4)nc2c1", "quantity": "GI50", "measured.result": "> 100 µM (inactive)"}

* * *

# Test system: NCI-H226
# assay.name: NCI tumour cell line growth inhibition, 48 h
Active and inactive are the calls of the source. Cut-off read from the data, not from the text of the source: active = GI50 up to about 1.1 µM and inactive = higher.

{"molecule": "CC(C)O/N=C/c1cc(NC(=S)OC(C)C)ccc1Cl", "GI50": "28.8 µM (inactive)"}
{"molecule": "S=C1NC2=C(COC/C2=C\\c2ccccc2Cl)C(c2ccccc2Cl)N1 (configuration not stated)", "GI50": "27.4 µM (inactive)"}
{"molecule": "Cc1ccsc1C(=O)C(CC(=O)c1cccs1)c1ccsc1 (configuration not stated)", "GI50": "> 100 µM (inactive)"}
{"molecule": "CN(C)CCSc1nccc(-c2ccc(-c3ccnc(SCCN(C)C)n3)s2)n1", "GI50": "12.9 µM (inactive)"}
{"molecule": "CC1CC(NN(C)C)C2(C(N)=O)C(N)=NC(=O)C12C#N (configuration not stated)", "GI50": "> 100 µM (inactive)"}
{"molecule": "COc1ccc(C2=Nc3c(nc(OC)[nH]c3=O)NC(c3ccccc3)C2)cc1 (configuration not stated)", "GI50": "36.6 µM (inactive)"}
{"molecule": "CN1C(NCCO)=NS(=O)(=O)c2ccccc21", "GI50": "> 100 µM (inactive)"}
{"molecule": "CCCCCCc1cc(C(=O)Nc2ccc(Cl)cc2)nc(S)n1", "GI50": "> 10 µM (inactive)"}
{"molecule": "OCCCN=C1CCCCC1", "GI50": "> 100 µM (inactive)"}
{"molecule": "CCc1nn(CN2CCN(C)CC2)c(=S)n1/N=C\\c1ccc(-c2ccc([N+](=O)[O-])cc2)o1", "GI50": "22.7 µM (inactive)"}
{"molecule": "Nc1cc2nc(O)c(O)nc2cc1N", "GI50": "> 100 µM (inactive)"}
{"molecule": "COC(=O)C1CCC(=O)N1CN(C(C)=O)c1cc(OC)ccc1OC (configuration not stated)", "GI50": "> 100 µM (inactive)"}
